Data credit: patent US4564619A

# Test system: ADP-induced aggregation in rabbit platelets
# protocol: Inhibition of ADP-induced platelet aggregation in rabbit platelet rich plasma
# Type: cell-based
# conditions: Oryctolagus cuniculus, Concentration of the test compound solution 10^-5 mole, read-out: Inhibition rate of ADP-induced aggregation
Quick rule: inhibition at 10 µM (stock) of at least 30% means Satisfied, below that means Not satisfied.

Some entries whose results are on file:
compound	system	assigned label
COC(=O)C1=C(C)NC(C)=C(C(=O)OCCOc2ccc3c(c2)CCC(=O)N3)C1c1ccccc1[N+](=O)[O-] (centres unmarked) [Compound 21]	ADP-induced aggregation in rabbit platelets	Not satisfied
COC(=O)C1=C(C)NC(C)=C(C(=O)OCCCCOc2ccc3[nH]c(=O)ccc3c2)C1c1cccc([N+](=O)[O-])c1 (centres unmarked) [Compound 15]	ADP-induced aggregation in rabbit platelets	Not satisfied
COC(=O)C1=C(C)NC(C)=C(C(=O)OCCCCOc2ccc3c(c2)CCC(=O)N3)C1c1ccccc1SC (centres unmarked) [Compound 26]	ADP-induced aggregation in rabbit platelets	Not satisfied
COC(=O)C1=C(C)NC(C)=C(C(=O)OCCN(C(=O)CCCOc2cccc3[nH]c(=O)ccc23)C2CCCCC2)C1c1cccc([N+](=O)[O-])c1 (centres unmarked) [Compound 33]	ADP-induced aggregation in rabbit platelets	Not satisfied
C=CCOc1ccc(OCCCOC(=O)C2=C(C)NC(C)=C(C(=O)OC)C2c2cccc([N+](=O)[O-])c2)c2c1NC(=O)CC2 (centres unmarked) [Compound 1]	ADP-induced aggregation in rabbit platelets	Not satisfied

Task: Does the reported inhibition at 10 µM (stock) for CCN(CCOC(=O)C1=C(C)NC(C)=C(C(=O)OC)C1c1ccccc1)C(=O)CCCOc1ccc2[nH]c(=O)ccc2c1 (centres unmarked) [Compound 36] fall at or above the 30% mark?
Output: Satisfied

Task: I'd appreciate it if you could say whether COC(=O)C1=C(C)NC(C)=C(C(=O)OCCOc2ccc3[nH]c(=O)ccc3c2)C1c1ccccc1[N+](=O)[O-] (centres unmarked) [Compound 20] has inhibition at 10 µM (stock) at least equal to 30%.
Output: Satisfied

Task: Quick check: does COC(=O)C1=C(C)NC(C)=C(C(=O)OCCCCOc2ccc3[nH]c(=O)ccc3c2)C1c1ccccc1C(F)(F)F (centres unmarked) [Compound 24] have inhibition at 10 µM (stock) greater than or equal to 30%?
Output: Satisfied

Task: Assess whether reported inhibition at 10 µM (stock) for COC(=O)C1=C(C)NC(C)=C(C(=O)OCCCOc2ccc3c(c2)NC(=O)CC3)C1c1cccc([N+](=O)[O-])c1 (centres unmarked) [Compound 6] sits at 30% or higher.
Output: Not satisfied

Task: // inclusive: inhibition at 10 µM (stock) at least 30%? input: COC(=O)C1=C(C)NC(C)=C(C(=O)OCCCOc2ccc3[nH]c(=O)ccc3c2)C1c1ccccc1 (centres unmarked) [Compound 44]
Output: Not satisfied

###

# protocol: Change of blood pressure, intravenous administration, anesthetized dog
# Assay type: in vivo
# Set-up: unit not given here
# conditions: femoral artery, 300 micrograms/kg
I'd appreciate it if you could supply Change of blood pressure values for the items below.

Here are 2 molecules together with their reported answers.
> print(dat)
                                   molecule                  property  data.value
1  COC(=O)C1=C(C)NC(C)=C(C(=O)OCCOc2ccc3c(c2)NC(=O)CC3)C1c1cccc([N+](=O)[O-])c1 (stereo not drawn)  Change of blood pressure         -32
2  COC(=O)C1=C(C)NC(C)=C(C(=O)OCCN(C(=O)CCCOc2ccc3[nH]c(=O)ccc3c2)C2CCCCC2)C1c1cccc([N+](=O)[O-])c1 (stereo not drawn)  Change of blood pressure         -23

Now, please, on to the next molecule.
Task: Using known records, supply Change of blood pressure for COC(=O)C1=C(C)NC(C)=C(C(=O)OCCCOc2ccc(O)c3c2CCC(=O)N3)C1c1cccc([N+](=O)[O-])c1 (stereo not drawn)
Output: -14

###

Please provide measured Increased amount of the blood flow in coronary artery for the entries that follow.
# Test system: coronary artery
# protocol: Increased amount of the blood flow in coronary artery, intravenous administration, anesthetized dog
# Format: in vivo
# conditions: 3 micrograms/kg
One number for each entry, in mL/min.

> print(dat)
                                   molecule  data.value
1  COC(=O)C1=C(C)NC(C)=C(C(=O)OCCOc2ccc3c(c2)CCC(=O)N3)C1c1cccc([N+](=O)[O-])c1 (stereo not shown) [Compound 3]           2
2  COC(=O)C1=C(C)NC(C)=C(C(=O)OCCCOc2cccc3c2CCC(=O)N3)C1c1cccc([N+](=O)[O-])c1 (stereo not shown) [Compound 4]           3
3  COC(=O)C1=C(C)NC(C)=C(C(=O)OCCCOc2cccc3c2NC(=O)CC3)C1c1cccc([N+](=O)[O-])c1 (stereo not shown) [Compound 9]           4
4  C=CCOc1ccc(OCCCOC(=O)C2=C(C)NC(C)=C(C(=O)OC)C2c2cccc([N+](=O)[O-])c2)c2c1NC(=O)CC2 (stereo not shown) [Compound 1]           4
5  COC(=O)C1=C(C)NC(C)=C(C(=O)OCCCOc2ccc3c(c2)CCC(=O)N3)C1c1cccc([N+](=O)[O-])c1 (stereo not shown) [Compound 5]           3
6  CCCOc1ccc(OCCCOC(=O)C2=C(C)NC(C)=C(C(=O)OC)C2c2cccc([N+](=O)[O-])c2)c2c1NC(=O)CC2 (stereo not shown) [Compound 11]           7

Task: # return recorded Increased amount of the blood flow in coronary artery for input C#CCOc1ccc(OCCCOC(=O)C2=C(C)NC(C)=C(C(=O)OC)C2c2cccc([N+](=O)[O-])c2)c2c1NC(=O)CC2 (stereo not shown) [Compound 12]
Output: 5

###

I'd be grateful if you could share measured Increased amount of the blood flow in coronary artery for these entries.
# Test system: coronary artery
# protocol: Increased amount of the blood flow in coronary artery, intravenous administration, anesthetized dog
# Assay type: in vivo
# conditions: 30 micrograms/kg
Answers are plain numbers, in mL/min.

These recorded examples may help you get a feel for the data.
> print(dat)
                                   compound  unit.text  data.value
1  COC(=O)C1=C(C)NC(C)=C(C(=O)OCCCOc2ccc3c(c2)CCC(=O)N3)C1c1cccc([N+](=O)[O-])c1 (centres unmarked)     mL/min          47
2  COC(=O)C1=C(C)NC(C)=C(C(=O)OCCOc2ccc3c(c2)CCC(=O)N3)C1c1cccc([N+](=O)[O-])c1 (centres unmarked)     mL/min           3
3  C=CCOc1ccc(OCCCOC(=O)C2=C(C)NC(C)=C(C(=O)OC)C2c2cccc([N+](=O)[O-])c2)c2c1NC(=O)CC2 (centres unmarked)     mL/min          63
4  COC(=O)C1=C(C)NC(C)=C(C(=O)OCCOc2cccc3c2CCC(=O)N3)C1c1cccc([N+](=O)[O-])c1 (centres unmarked)     mL/min          13

Attention now turns to another entry.
Task: Provide Increased amount of the blood flow in coronary artery, recorded with coronary artery, of COC(=O)C1=C(C)NC(C)=C(C(=O)OCCCOc2ccc(O)c3c2CCC(=O)N3)C1c1cccc([N+](=O)[O-])c1 (centres unmarked)
Output: 1

###

# Test system: coronary artery
# protocol: Increased amount of the blood flow in coronary artery, intravenous administration, anesthetized dog
# Assay type: in vivo
# conditions: 30 micrograms/kg
# Experimental: The change of blood flow in coronary artery and the change of blood pressure were measured by a method according to Yakura et al., [Japan Journal of Pharmacology, Vol. 57, pages 380-391 (1961)] and according to Taira, et al. [Clin. Exp. Pharmacol. Physiol., Vol. 6, pages 301-316, (1976)]. […]
// assign true if Increased amount of the blood flow in coronary artery falls strictly below 20 mL/min, else false (ties count as false)

> print(dat)
                                   molecule           system  assigned.label
1  COC(=O)C1=C(C)NC(C)=C(C(=O)OCCCOc2ccc3[nH]c(=O)ccc3c2)C1c1cccc([N+](=O)[O-])c1 (stereo not shown)  coronary artery            true
2  COC(=O)C1=C(C)NC(C)=C(C(=O)OCCCOc2cccc3c2NC(=O)CC3)C1c1cccc([N+](=O)[O-])c1 (stereo not shown)  coronary artery           false

Task: Problem: For the molecule COC(=O)C1=C(C)NC(C)=C(C(=O)OCCCOc2ccc3c(c2)NC(=O)CC3)C1c1cccc([N+](=O)[O-])c1 (stereo not shown) , is Increased amount of the blood flow in coronary artery under 20 mL/min?
Output: false

Task: Does COC(=O)C1=C(C)NC(C)=C(C(=O)OCCCOc2cccc3c2CCC(=O)N3)C1c1cccc([N+](=O)[O-])c1 (stereo not shown) have Increased amount of the blood flow in coronary artery strictly under 20 mL/min?
Output: false

Task: Here's an entry: CCCOc1ccc(OCCCOC(=O)C2=C(C)NC(C)=C(C(=O)OC)C2c2cccc([N+](=O)[O-])c2)c2c1NC(=O)CC2 (stereo not shown) . Is its Increased amount of the blood flow in coronary artery below 20 mL/min?
Output: false

Task: Increased amount of the blood flow in coronary artery strictly < 20 mL/min for this molecule? C#CCOc1ccc(OCCCOC(=O)C2=C(C)NC(C)=C(C(=O)OC)C2c2cccc([N+](=O)[O-])c2)c2c1NC(=O)CC2 (stereo not shown)
Output: false

Task: Is it true that Increased amount of the blood flow in coronary artery reported for COC(=O)C1=C(C)NC(C)=C(C(=O)OCCOc2ccc3[nH]c(=O)ccc3c2)C1c1cccc([N+](=O)[O-])c1 (stereo not shown) is less than 20 mL/min?
Output: true
